Target: T1, Murine CXCR2 (Mus musculus, UniProt P35343)
T1 construct: expressed in transfected cells
T1 sequence (P35343 1-359): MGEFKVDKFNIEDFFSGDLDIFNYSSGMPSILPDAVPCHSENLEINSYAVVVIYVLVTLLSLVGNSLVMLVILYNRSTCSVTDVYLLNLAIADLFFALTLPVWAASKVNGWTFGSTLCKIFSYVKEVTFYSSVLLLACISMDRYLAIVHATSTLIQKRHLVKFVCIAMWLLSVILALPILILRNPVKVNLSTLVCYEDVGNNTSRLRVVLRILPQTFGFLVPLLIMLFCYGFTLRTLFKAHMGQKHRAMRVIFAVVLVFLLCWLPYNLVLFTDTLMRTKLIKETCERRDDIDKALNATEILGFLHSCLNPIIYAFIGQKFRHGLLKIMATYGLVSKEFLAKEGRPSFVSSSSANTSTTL
Experiment: cELISA of hybridoma supernatants on cells transfected with murine CXCR2
Type: binding
Settings: hybridoma supernatant; fluorescence units relative to positive control (100%)
Use Fulfilled when the recorded Murine CXCR2 % Positive is no lower than 8%; use Not fulfilled when it is lower.

| Molecule | Label |
| --- | --- |
| BKO-7C11: VH SEQ ID NO: 31, VL SEQ ID NO: 32 (antibody, V domains shown, BKO_7C11_H6_B06_VH; BKO_7C11_G01_VL) VH: QVQLQQWGAGLLKPSETLSLTCAVYGGSFSGYYWSWIRQPPGKGLEWIGEINHSRNTNYNPSLKSRVTISVDTSKNQFSLKLSSVTAADTAVYYCARGEVRGVFTLYWYFDVWGRGTLVTVSS VL: SSELTQGPAVSVALGQTVRITCQGNSLRFYYASWYQQRPGQAPILVIYDKNNRPSGIPDRFSGSSSGNTASLTITGAQAEDEADYYCNSRDSSGYYMIFGGGTKLTVL | Not fulfilled |
| BKO-8B6: VH SEQ ID NO: 37, VL SEQ ID NO: 38 (antibody, V domains shown, BKO_8B6_VH; BKO_8B6_VL) VH: EVQLLESGGGLVQPGGSLRLSCAASGFTFSSNAMSWVRQAPGKGLEWVSAISNSGRSTYYADSVKGRFTISRDSSKNTLYLLMNSLRAEDSAVYYCAIKLGYWGQGSLVTVSS VL: QSALTQPPSASGSPGQSVTISCTGTSSDVGGYNYVSWYQQHPGKAPKLMMYEVSKRPSGVPDRFSGSKSGNTASLTVSGLQAEDEADYYCSSYAGSDNFGVFGGGTRLTVL | Not fulfilled |
| BKO-1B10: VH SEQ ID NO: 3, VL SEQ ID NO: 4 (antibody, V domains shown, BKO_1B10_VH; BKO_1B10_VL) VH: QLQLQESGPGLVKPSETLSLTCTVSGGSIRTSSYYWGWIRQPPGKGLEYIGSIYYSGTTYYNPSLKSRVTMSVDTSKNQFSLKLSSVTAADTAVYYCARHGRVREVPPFDYWGQGTLVTVSS VL: SSELTQDPAVSVALGQTVRITCQGDSLRYYYASWYQQKPGQAPVLVIYDENSRPSGIPDRFSGSSSGNTASLRITGTQAEDEADYYCNSRDTSGNHWAFGGGTKLTVL | Not fulfilled |
| BKO-8C4: VH SEQ ID NO: 39, VL SEQ ID NO: 40 (antibody, V domains shown, BKO_8C4_VH; BKO_8C4_VL) VH: QLQLQESGPGLVKPSETLSLTCTVSGGSIRTSSYYWGWIRQPPGKGLEYIGSIYYSGTTYYNPSLKSRVTMSVDTSKNQFSLKLSSVTAADTAVYYCARHGRVREVPPFDYWGQGTLVTVSS VL: SSELTQDPAVSVALGQTVRITCQGDSLRYYYASWYQQKPGQAPVLVIYDENSRPSGIPDRFSGSSSGNTASLRITGTQAEDEADYYCNSRDTSGNHWAFGGGTKLTVL | Not fulfilled |
| BKO-1D1: VH SEQ ID NO: 5, VL SEQ ID NO: 6 (antibody, V domains shown, BKO_1D1_VH; BKO_1D1_VL) VH: EVQLLESGGGLVQPGGSLRLSCAASKLTFKNSAMSWVRQAPGKGLEWVSAITGSGGRTYYADSVKGRFTISRDNSKNTLYLQMNSLRAEDTAIYYCAIQMGYWGQGILVTVSS VL: QSALTQPPSASGSPGQSVTISCTGTSSDVGGYNYVSWYQQHPGKAPKLMIYEVNKRPSGVPARFSGSKSGNTASLTVSGLQAEDEADYYCSSYAGSNNFGVFGGGTKLTVL | Not fulfilled |

Challenge: Does Murine CXCR2 % Positive meet or surpass 8% for BKO-3F4: VH SEQ ID NO: 15, VL SEQ ID NO: 16 (antibody, V domains shown, BKO_3F4_VH; BKO_3F4_L11_A11_VL) VH: EVQLLESGGGLVQPGGSLRLSCAASGLTFSSYAMSWVRQAPGKGLEWVSAISGSGGKIYYADSVKGRFTISRDNSKNTLYLQMNSLRAEDTAVYYCAIQVGYWGQGTLVTVSS VL: QSALTQPPSASGSPGQSVTMSCTGTSSDVGGYNYVTWYQQHPGKAPKLMIYEVSKRPSGVPARFSGSKSGNTASLTVSGLQAEDEADYYCSSYAGPNNFGVFGGGTKLTVL ?
Response given: Fulfilled

Challenge: Does Murine CXCR2 % Positive meet or surpass 8% for BKO-5G11: VH SEQ ID NO: 23, VL SEQ ID NO: 24 (antibody, V domains shown, BKO_5G11_VH; BKO_5G11_VL) VH: EVQLLESGGGLVQPGGSLRLSCAVSGFTFSNYAMTWVRQAPGKGLEWVSAISGRGSRTYYADSVKGRFTISRDTSKNTLYLQMNSLRAEDTAVYYCAKMDYWGQGTLVTVSS VL: QSALTQPPSASGSPGQSVTISCTGTSSDVGGYNYVSWYQQHPGKAPKLMIFEVSKRPSGVPDRFSGSKSGNTASLTVSGLQAEDEADYYCSSYAGSNNFGVFGGGTKLTVL ?
Response given: Fulfilled
